System: SARS-CoV-2
measurement_description: microbe, parasite or virus in culture
Assay type: cell-based
condition_description: Severe acute respiratory syndrome coronavirus 2, Vero C1008; Vero E6 cells, immunofluorescence assay; read-out: SARS-CoV-2 antiviral assay EC50
Could you please report measured pEC50 for the items listed next?
Value format note: pEC50 is -log10 of concentration (mol/L); just state the number.

Please fill in: pEC50 reported for C[C@H](NC(=O)C(c1cccnc1)N(C(=O)c1ccco1)c1ccc(-c2ccccc2)cc1)c1ccccc1 (some centres unmarked) [Jun8-76-3] = 5.79

Please fill in: pEC50 reported for O=C(NCCCc1ccccc1)C(c1cccnc1)N(C(=O)c1ccco1)c1ccc(-c2ccccc2)cc1 (centres unmarked) [Jun9-12-2] = 5.69

Please fill in: pEC50 reported for C[C@H](NC(=O)C(c1cnccn1)N(C(=O)c1ccco1)c1ccc(-c2ccccc2)cc1)c1ccccc1 (some centres unmarked) [Jun9-4-4] = 6.09

Please fill in: pEC50 reported for C[C@H](NC(=O)C(c1cnccn1)N(C(=O)c1c[nH]cn1)c1ccc(-c2ccccc2)cc1)c1ccccc1 (some centres unmarked) [Jun9-5-2] = 5.34

Please fill in: pEC50 reported for C[C@H](NC(=O)C(c1cccnc1)N(C(=O)c1ccco1)c1ccc(-n2cccc2)cc1)c1ccccc1 (some centres unmarked) [Jun8-76-5] = 5.76

* * *

system_tested: SARS-CoV-2 M^pro (Severe acute respiratory syndrome coronavirus 2 (2019-nCoV) (SARS-CoV-2), UniProt P0DTD1)
measurement_description: biochemical
condition_description: SARS-CoV-2 M^pro IC50 (μM)
Could you please report measured IC50 for the items listed next?
Dear colleague, please return just the value in µM, with no unit written.

Please fill in: IC50 reported for C[C@H](NC(=O)C(c1cccnc1)N(C(=O)c1ccco1)c1ccc(-c2ccccc2)cc1)c1ccccc1 (stereo partly drawn) [Jun8-76-3] = 0.31

Please fill in: IC50 reported for C[C@H](NC(=O)C(c1cccnc1)N(C(=O)c1ccco1)c1ccc(-c2ccccc2)cc1)c1ccccc1 (single isomer, unassigned) [Compound 23R] = 0.15

* * *

system_tested: UniProt:P0DTD1
measurement_description: biochemical
condition_description: read-out: SARS-COV-2 main protease enzymatic inhibition IC50
Could you please report measured IC50 for the items listed next?
Dear colleague, please return just the value in nM, with no unit written.

// IC50 (UniProt:P0DTD1) for CC(C)(C)c1ccc(N(C(=O)c2ccco2)C(C(=O)NC2CC2)c2cccnc2)cc1 (stereo not shown) [Jun8-58-2] = 3860

// IC50 (UniProt:P0DTD1) for COc1ccc(NC(=O)C(c2cccnc2)N(C(=O)c2ccco2)c2ccc(C(C)(C)C)cc2)cc1 (stereo not shown) [Jun9-88-4] = 7490

// IC50 (UniProt:P0DTD1) for C[C@H](NC(=O)C(c1cccnc1)N(C(=O)c1ccco1)c1ccc([Si](C)(C)C)cc1)c1ccccc1 (stereo partly shown) [Jun8-75-2] = 1970

// IC50 (UniProt:P0DTD1) for C[C@H](NC(=O)C(c1cccnc1)N(C(=O)c1ccco1)c1ccc(C2CCCCC2)cc1)c1ccccc1 (stereo partly shown) [Jun8-66-1] = 510

* * *

system_tested: SARS-CoV-2 M^pro (Severe acute respiratory syndrome coronavirus 2 (2019-nCoV) (SARS-CoV-2), UniProt P0DTD1)
measurement_description: biochemical
condition_description: read-out: IC50 against SARS-CoV-2 M^pro
test_readout: IC50
A bare number is not enough; add the unit after it.

Please fill in: IC50 reported for C[C@H](NC(=O)C(c1cccnc1)N(C(=O)CCl)c1ccc(-c2ccccc2)cc1)c1ccccc1 (stereo partly drawn) = 0.17 µM

Please fill in: IC50 reported for C[C@H](NC(=O)[C@@H](c1cccnc1)N(C(=O)C(Cl)Cl)c1ccc(-c2ccccc2)cc1)c1ccc(Br)cc1 = 0.3 µM

Please fill in: IC50 reported for C[C@H](NC(=O)[C@H](c1cccnc1)N(C(=O)C(Cl)(Br)Br)c1ccc(-c2ccccc2)cc1)c1ccccc1 = 9.04 µM
